Values from patent US12637478B2

# System: C. difficile 159
# test_protocol: MIC by agar dilution against Clostridioides difficile, test strain 15
# Assay type: cell-based
# assay_context: test strain 15, C. difficile 159, anaerobic, agar dilution, read-out: MIC
recorded_endpoint: MIC
Record the result as number plus unit.

# count of solved cases: 4
smiles_repr: C/C=C(\NC(=O)c1csc(-c2csc(-c3ccc4c(n3)-c3csc(n3)[C@H]([C@@H](C)O)NC(=O)c3csc(n3)[C@H](C(C)C)NC(=O)c3csc(n3)/C(=C/C)NC(=O)[C@H]([C@@H](C)O)NC(=O)c3csc-4n3)n2)n1)C(=O)NCCn1cnc([N+](=O)[O-])n1
test_result: 0.5 µg/mL
--
smiles_repr: C/C=C1\NC(=O)[C@H]([C@@H](C)O)NC(=O)c2csc(n2)-c2ccc(-c3nc(-c4nc(C(=O)NC5(C(=O)NCCn6cc([N+](=O)[O-])nc6C)CC5)cs4)cs3)nc2-c2csc(n2)[C@H]([C@@H](C)O)NC(=O)c2csc(n2)[C@H](C(C)C)NC(=O)c2csc1n2
test_result: 0.5 µg/mL
--
smiles_repr: C/C=C1\NC(=O)[C@H]([C@@H](C)O)NC(=O)c2csc(n2)-c2ccc(-c3nc(-c4nc(C(=O)NC5(C(=O)NCCCN6C(=O)CNC6=O)CC5)cs4)cs3)nc2-c2csc(n2)[C@H]([C@@H](C)O)NC(=O)c2csc(n2)[C@H](C(C)C)NC(=O)c2csc1n2
test_result: 0.5 µg/mL
--
smiles_repr: C/C=C1\NC(=O)[C@H]([C@@H](C)O)NC(=O)c2csc(n2)-c2ccc(-c3nc(-c4nc(C(=O)NC5(C(=O)NCCCB(O)O)CC5)cs4)cs3)nc2-c2csc(n2)[C@H]([C@@H](C)O)NC(=O)c2csc(n2)[C@H](C(C)C)NC(=O)c2csc1n2
test_result: 0.25 µg/mL

Now look at this entry.
Exam item: Entry C/C=C1\NC(=O)[C@H]([C@@H](C)O)NC(=O)c2csc(n2)-c2ccc(-c3nc(-c4nc(C(=O)NC5(C(=O)NCCn6c([N+](=O)[O-])cnc6C)CC5)cs4)cs3)nc2-c2csc(n2)[C@H]([C@@H](C)O)NC(=O)c2csc(n2)[C@H](C(C)C)NC(=O)c2csc1n2 has what MIC?
Marked response: 0.5 µg/mL

----------
# Tested on: S. epidermis
# test_protocol: MIC by broth microdilution (aerobic pathogens), test strain 5
# Assay type: cell-based
# assay_context: Staphylococcus epidermidis; test strain 5, S. epidermis; read-out: MIC
recorded_endpoint: MIC (µg/mL)
The figure you give is taken to be in µg/mL; do not add the unit.

Exam item: What value of measured MIC is listed for C/C=C(\NC(=O)c1csc(-c2csc(-c3ccc4c(n3)-c3csc(n3)[C@H]([C@@H](C)O)NC(=O)c3csc(n3)[C@H](C(C)C)NC(=O)c3csc(n3)/C(=C/C)NC(=O)[C@H]([C@@H](C)O)NC(=O)c3csc-4n3)n2)n1)C(=O)NCCn1cnc([N+](=O)[O-])n1 ?
Marked response: 0.5

Exam item: Follow-up item: C/C=C1\NC(=O)[C@H]([C@@H](C)O)NC(=O)c2csc(n2)-c2ccc(-c3nc(-c4nc(C(=O)NC5(C(=O)NCCCB(O)O)CC5)cs4)cs3)nc2-c2csc(n2)[C@H]([C@@H](C)O)NC(=O)c2csc(n2)[C@H](C(C)C)NC(=O)c2csc1n2
Marked response: 0.0625

Exam item: Another compound to look at: C/C=C1\NC(=O)[C@H]([C@@H](C)O)NC(=O)c2csc(n2)-c2ccc(-c3nc(-c4nc(C(=O)NC5(C(=O)NCCN6CCN(CCC(=O)OC)CC6)CC5)cs4)cs3)nc2-c2csc(n2)[C@H]([C@@H](C)O)NC(=O)c2csc(n2)[C@H](C(C)C)NC(=O)c2csc1n2
Marked response: 0.25

Exam item: Queued: C/C=C(\NC(=O)c1csc(-c2csc(-c3ccc4c(n3)-c3csc(n3)[C@H]([C@@H](C)O)NC(=O)c3csc(n3)[C@H](C(C)C)NC(=O)c3csc(n3)/C(=C/C)NC(=O)[C@H]([C@@H](C)O)NC(=O)c3csc-4n3)n2)n1)C(=O)NCCCN1CCOCC1
Marked response: 0.5

----------
# reported MIC; entries follow
# Tested on: E. faecalis
# test_protocol: MIC by broth microdilution (aerobic pathogens), test strain 7
# Format: cell-based
# assay_context: Enterococcus faecalis; test strain 7, E. faecalis; read-out: MIC
# output: bare number, implied unit µg/mL

Solved entries:
smiles_repr: C/C=C1\NC(=O)[C@H]([C@@H](C)O)NC(=O)c2csc(n2)-c2ccc(-c3nc(-c4nc(C(=O)NC5(C(=O)NCCN6CCN(CCCC#N)CC6)CC5)cs4)cs3)nc2-c2csc(n2)[C@H]([C@@H](C)O)NC(=O)c2csc(n2)[C@H](C(C)C)NC(=O)c2csc1n2
tgt: E. faecalis
test_result: 1
//
smiles_repr: C/C=C1\NC(=O)[C@H]([C@@H](C)O)NC(=O)c2csc(n2)-c2ccc(-c3nc(-c4nc(C(=O)NC5(C(=O)NCCCCB(O)O)CC5)cs4)cs3)nc2-c2csc(n2)[C@H]([C@@H](C)O)NC(=O)c2csc(n2)[C@H](C(C)C)NC(=O)c2csc1n2
tgt: E. faecalis
test_result: 0.5
//
smiles_repr: C/C=C1\NC(=O)[C@H]([C@@H](C)O)NC(=O)c2csc(n2)-c2ccc(-c3nc(-c4nc(C(=O)NC5(C(=O)NCCCB(O)O)CC5)cs4)cs3)nc2-c2csc(n2)[C@H]([C@@H](C)O)NC(=O)c2csc(n2)[C@H](C(C)C)NC(=O)c2csc1n2
tgt: E. faecalis
test_result: 0.25
//
smiles_repr: C/C=C(\NC(=O)c1csc(-c2csc(-c3ccc4c(n3)-c3csc(n3)[C@H]([C@@H](C)O)NC(=O)c3csc(n3)[C@H](C(C)C)NC(=O)c3csc(n3)/C(=C/C)NC(=O)[C@H]([C@@H](C)O)NC(=O)c3csc-4n3)n2)n1)C(=O)NCCN1CCN(C)CC1
tgt: E. faecalis
test_result: 0.5

Consider the record given below.
Exam item: MIC for C/C=C1\NC(=O)[C@H]([C@@H](C)O)NC(=O)c2csc(n2)-c2ccc(-c3nc(-c4nc(C(=O)NC5(C(=O)NCCN6CCN(CCC(=O)OC)CC6)CC5)cs4)cs3)nc2-c2csc(n2)[C@H]([C@@H](C)O)NC(=O)c2csc(n2)[C@H](C(C)C)NC(=O)c2csc1n2 ?
Marked response: 1

----------
# Test system: S. epidermis
# test_protocol: MIC by broth microdilution (aerobic pathogens), test strain 5
# Type: cell-based
# assay_context: Staphylococcus epidermidis; test strain 5, S. epidermis; read-out: MIC
recorded_endpoint: MIC (µg/mL)
Your answer should be a plain number; it is taken to be in µg/mL.

The cases that follow already have their MIC on record.
smiles_repr: C/C=C(\NC(=O)c1csc(-c2csc(-c3ccc4c(n3)-c3csc(n3)[C@H]([C@@H](C)O)NC(=O)c3csc(n3)[C@H](C(C)C)NC(=O)c3csc(n3)/C(=C/C)NC(=O)[C@H]([C@@H](C)O)NC(=O)c3csc-4n3)n2)n1)C(=O)NCCN1CCOCC1
unit_text: µg/mL
test_result: 0.125
//
smiles_repr: C/C=C1\NC(=O)[C@H]([C@@H](C)O)NC(=O)c2csc(n2)-c2ccc(-c3nc(-c4nc(C(=O)NC5(C(=O)NCCCN6CCN(C(C)C)CC6)CC5)cs4)cs3)nc2-c2csc(n2)[C@H]([C@@H](C)O)NC(=O)c2csc(n2)[C@H](C(C)C)NC(=O)c2csc1n2
unit_text: µg/mL
test_result: 0.5
//
smiles_repr: C/C=C1\NC(=O)[C@H]([C@@H](C)O)NC(=O)c2csc(n2)-c2ccc(-c3nc(-c4nc(C(=O)NC5(C(=O)NCCn6cnc([N+](=O)[O-])n6)CC5)cs4)cs3)nc2-c2csc(n2)[C@H]([C@@H](C)O)NC(=O)c2csc(n2)[C@H](C(C)C)NC(=O)c2csc1n2
unit_text: µg/mL
test_result: 1

Exam item: Fill in: MIC of C/C=C1\NC(=O)[C@H]([C@@H](C)O)NC(=O)c2csc(n2)-c2ccc(-c3nc(-c4nc(C(=O)NC5(C(=O)NCCCCB(O)O)CC5)cs4)cs3)nc2-c2csc(n2)[C@H]([C@@H](C)O)NC(=O)c2csc(n2)[C@H](C(C)C)NC(=O)c2csc1n2 is ___
Marked response: 0.5

----------
# Test system: C. difficile 9689
# test_protocol: MIC by agar dilution against Clostridioides difficile, test strain 13
# Type: cell-based
# assay_context: test strain 13, C. difficile 9689, anaerobic, agar dilution, read-out: MIC
recorded_endpoint: MIC (µg/mL)
Give just the number in µg/mL; leave the unit off.

Solved cases (4 shown):
molecule: C/C=C1\NC(=O)[C@H]([C@@H](C)O)NC(=O)c2csc(n2)-c2ccc(-c3nc(-c4nc(C(=O)NC5(C(=O)NCCCN6CCOCC6)CC5)cs4)cs3)nc2-c2csc(n2)[C@H]([C@@H](C)O)NC(=O)c2csc(n2)[C@H](C(C)C)NC(=O)c2csc1n2 [Compound 7]
MIC / µg/mL: 0.25

molecule: C/C=C(\NC(=O)c1csc(-c2csc(-c3ccc4c(n3)-c3csc(n3)[C@H]([C@@H](C)O)NC(=O)c3csc(n3)[C@H](C(C)C)NC(=O)c3csc(n3)/C(=C/C)NC(=O)[C@H]([C@@H](C)O)NC(=O)c3csc-4n3)n2)n1)C(=O)NCCn1ccnc1[N+](=O)[O-] [Compound 43]
MIC / µg/mL: 0.5

molecule: C/C=C1\NC(=O)[C@H]([C@@H](C)O)NC(=O)c2csc(n2)-c2ccc(-c3nc(-c4nc(C(=O)NC5(C(=O)NCCCB(O)O)CC5)cs4)cs3)nc2-c2csc(n2)[C@H]([C@@H](C)O)NC(=O)c2csc(n2)[C@H](C(C)C)NC(=O)c2csc1n2 [Compound 10]
MIC / µg/mL: 0.5

molecule: C/C=C1\NC(=O)[C@H]([C@@H](C)O)NC(=O)c2csc(n2)-c2ccc(-c3nc(-c4nc(C(=O)NC5(C(=O)NCCCn6cc([N+](=O)[O-])cn6)CC5)cs4)cs3)nc2-c2csc(n2)[C@H]([C@@H](C)O)NC(=O)c2csc(n2)[C@H](C(C)C)NC(=O)c2csc1n2 [Compound 13]
MIC / µg/mL: 0.5

Next up:
Exam item: Requested field: MIC. Item: C/C=C(\NC(=O)c1csc(-c2csc(-c3ccc4c(n3)-c3csc(n3)[C@H]([C@@H](C)O)NC(=O)c3csc(n3)[C@H](C(C)C)NC(=O)c3csc(n3)/C(=C/C)NC(=O)[C@H]([C@@H](C)O)NC(=O)c3csc-4n3)n2)n1)C(=O)NCCn1cnc([N+](=O)[O-])n1 [Compound 42]
Marked response: 0.5
